Each entry below carries its reported IC50.
subject_of_test: c-kit kinase (Homo sapiens (Human), UniProt P10721)
Sequence (P10721 26-976): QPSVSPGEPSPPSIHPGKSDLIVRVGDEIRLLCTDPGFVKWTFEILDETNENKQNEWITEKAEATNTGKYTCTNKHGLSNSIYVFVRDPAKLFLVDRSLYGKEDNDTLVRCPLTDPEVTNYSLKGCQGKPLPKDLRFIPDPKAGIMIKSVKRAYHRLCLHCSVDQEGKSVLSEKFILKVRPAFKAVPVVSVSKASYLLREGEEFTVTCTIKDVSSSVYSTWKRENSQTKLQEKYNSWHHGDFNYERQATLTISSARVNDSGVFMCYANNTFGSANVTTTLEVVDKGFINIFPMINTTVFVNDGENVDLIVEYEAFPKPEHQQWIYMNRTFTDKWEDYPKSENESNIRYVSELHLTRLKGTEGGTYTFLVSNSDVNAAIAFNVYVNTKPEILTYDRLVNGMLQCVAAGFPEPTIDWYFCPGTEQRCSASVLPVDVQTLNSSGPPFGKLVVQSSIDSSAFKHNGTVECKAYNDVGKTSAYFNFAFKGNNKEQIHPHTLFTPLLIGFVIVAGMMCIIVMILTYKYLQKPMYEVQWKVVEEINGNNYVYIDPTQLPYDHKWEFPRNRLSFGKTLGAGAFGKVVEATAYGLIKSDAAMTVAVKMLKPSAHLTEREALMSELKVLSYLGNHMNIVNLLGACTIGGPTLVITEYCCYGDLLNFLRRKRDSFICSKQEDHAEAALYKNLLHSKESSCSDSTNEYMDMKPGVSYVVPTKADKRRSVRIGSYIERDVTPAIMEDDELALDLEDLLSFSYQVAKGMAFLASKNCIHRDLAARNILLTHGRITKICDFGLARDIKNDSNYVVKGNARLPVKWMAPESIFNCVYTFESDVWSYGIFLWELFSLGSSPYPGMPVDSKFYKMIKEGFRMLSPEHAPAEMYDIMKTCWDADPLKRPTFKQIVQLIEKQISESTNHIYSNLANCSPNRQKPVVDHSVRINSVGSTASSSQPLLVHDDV
measurement_description: c-Kit biochemical assay (AlphaScreen)
measurement_conditions: c-kit biochemical inhibitory activity

State IC50 on c-kit kinase (Homo sapiens (Human), UniProt P10721). Entry: `CCc1ccc(-c2cc3cc(NC(=O)c4[nH]nc(C)c4C)cnc3[nH]2)cn1`
10 to 200 µM

State IC50 on c-kit kinase (Homo sapiens (Human), UniProt P10721). Entry: `Cc1cc(Cl)ccc1-c1cc2cc(NC(=O)c3[nH]nc(C)c3C)cnc2[nH]1`
10 to 200 µM

State IC50 on c-kit kinase (Homo sapiens (Human), UniProt P10721). Entry: `Cc1n[nH]c(C(=O)Nc2cnc3[nH]c(C4=CCN(C(=O)CN5CCOCC5)CC4)cc3c2)c1C`
1 to 10 µM

* * *

Tested on: BaF3-FL KIT D816V or BaF3-FL KIT V560G/D816V cell line
measurement_description: Cell-based assays of c-Kit mutant kinase activity (cell growth, ATPlite)
measurement_conditions: at least one of the c-kit cell assays of Example 26
pIC50: −log10 of the molar value.
parameter: pIC50

Consider the reported pIC50 for these molecules:
Give me measured pIC50, please, for this molecule: Cc1cc(CNc2cnc3[nH]c(-c4ccc(F)cc4)cc3c2)[nH]n1 [P-2142]
> 5.00

Give me measured pIC50, please, for this molecule: COc1nccc(-c2cc3cc(NC(=O)c4[nH]nc(C)c4C)cnc3[nH]2)c1Cl [P-2171]
> 5.00

Give me measured pIC50, please, for this molecule: CC(=O)Nc1cccc(-c2cc3cc(NC(=O)c4[nH]nc(C)c4C)cnc3[nH]2)c1 [P-2100]
> 5.00

Give me measured pIC50, please, for this molecule: CNS(=O)(=O)c1cccc(-c2cc3cc(NC(=O)c4[nH]nc(C)c4C)cnc3[nH]2)c1 [P-2121]
> 5.00

Give me measured pIC50, please, for this molecule: CONC(=O)c1cc(-c2cc3cc(NC(=O)c4n[nH]c(C)c4C)cnc3[nH]2)ccn1 [P-2223]
> 5.00

---
Give me measured pIC50, please, for this molecule: Cc1n[nH]c(C(=O)Nc2cnc3[nH]c(-c4ccc(OCC5(C)COC5)cc4)cc3c2)c1C [P-2149]
> 5.00

Give me measured pIC50, please, for this molecule: Cc1nn(C)cc1-c1cc2cc(NC(=O)c3[nH]nc(C)c3C)cnc2[nH]1 [P-2038]
> 5.00

Give me measured pIC50, please, for this molecule: CC(=O)N1CC=C(c2cc3cc(NC(=O)c4[nH]nc(C)c4Cl)cnc3[nH]2)CC1 [P-2061]
> 5.00

Give me measured pIC50, please, for this molecule: O=C(Nc1cnc2[nH]c(-c3ccc(F)cc3)cc2c1)c1n[nH]c2c1CCC2 [P-2056]
> 5.00

* * *

subject_of_test: c-kit mutant D816V (Homo sapiens (Human), UniProt P10721, D816V/DEL694-753)
Sequence (P10721 other isoform, or with tags, fused parts or gaps D816V/del 694-753): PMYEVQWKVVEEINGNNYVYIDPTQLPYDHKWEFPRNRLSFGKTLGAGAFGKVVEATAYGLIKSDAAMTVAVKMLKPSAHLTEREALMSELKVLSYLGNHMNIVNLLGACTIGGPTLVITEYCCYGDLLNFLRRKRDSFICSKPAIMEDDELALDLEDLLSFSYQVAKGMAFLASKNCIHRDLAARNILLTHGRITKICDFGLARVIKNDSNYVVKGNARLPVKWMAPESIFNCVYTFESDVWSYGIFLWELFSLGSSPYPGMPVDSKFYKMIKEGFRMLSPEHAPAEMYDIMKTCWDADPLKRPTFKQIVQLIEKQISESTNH
measurement_description: c-Kit mutant D816V biochemical assay (AlphaScreen)
measurement_conditions: c-kit D816V biochemical inhibitory activity
parameter: IC50

Consider the reported IC50 for these compounds:
State IC50 on c-kit mutant D816V (Homo sapiens (Human), UniProt P10721, D816V/DEL694-753). Entry: `Cc1n[nH]c(C(=O)Nc2cnc3[nH]nc(-c4ccc(F)cc4)c3c2)c1C`
0.0001 to 1 µM

State IC50 on c-kit mutant D816V (Homo sapiens (Human), UniProt P10721, D816V/DEL694-753). Entry: `Cc1n[nH]c(C(=O)Nc2cnc3[nH]c(-c4ccc(OCC5(C)COC5)cc4)cc3c2)c1C`
0.0001 to 1 µM

---
State IC50 on c-kit mutant D816V (Homo sapiens (Human), UniProt P10721, D816V/DEL694-753). Entry: `CNC(=O)c1ccc(-c2cc3cc(NC(=O)c4[nH]nc(C)c4C)cnc3[nH]2)cc1`
0.0001 to 1 µM

State IC50 on c-kit mutant D816V (Homo sapiens (Human), UniProt P10721, D816V/DEL694-753). Entry: `Cc1n[nH]c(C(=O)Nc2cnc3[nH]c(C4=CCN(C(=O)C5CC5)C4)cc3c2)c1Cl`
0.0001 to 1 µM

State IC50 on c-kit mutant D816V (Homo sapiens (Human), UniProt P10721, D816V/DEL694-753). Entry: `Cc1cc(C(=O)Nc2cnc3[nH]c(-c4ccc(F)cc4)cc3c2)[nH]n1`
0.0001 to 1 µM

State IC50 on c-kit mutant D816V (Homo sapiens (Human), UniProt P10721, D816V/DEL694-753). Entry: `Cc1cc(C(=O)Nc2cnc3[nH]c(-n4cccn4)cc3c2)[nH]n1`
1 to 10 µM

State IC50 on c-kit mutant D816V (Homo sapiens (Human), UniProt P10721, D816V/DEL694-753). Entry: `Cc1n[nH]c(C(=O)Nc2cnc3[nH]c(-c4cccc(C(=O)O)c4C)cc3c2)c1C`
0.0001 to 1 µM

State IC50 on c-kit mutant D816V (Homo sapiens (Human), UniProt P10721, D816V/DEL694-753). Entry: `CCNS(=O)(=O)c1cccc(Nc2ncc(NC(=O)c3[nH]nc(C)c3C)cn2)c1`
1 to 10 µM

State IC50 on c-kit mutant D816V (Homo sapiens (Human), UniProt P10721, D816V/DEL694-753). Entry: `O=C(O)c1cccc(C(=O)Nc2cnc3[nH]c(-c4ccccc4)cc3c2)c1`
10 to 200 µM

State IC50 on c-kit mutant D816V (Homo sapiens (Human), UniProt P10721, D816V/DEL694-753). Entry: `CC(=O)N1CC=C(c2cc3cc(NC(=O)c4[nH]nc(C)c4Cl)cnc3[nH]2)CC1`
0.0001 to 1 µM

State IC50 on c-kit mutant D816V (Homo sapiens (Human), UniProt P10721, D816V/DEL694-753). Entry: `Cc1c(C(F)F)n[nH]c1C(=O)Nc1cnc2[nH]c(-c3ccc(F)cc3)cc2c1`
0.0001 to 1 µM

State IC50 on c-kit mutant D816V (Homo sapiens (Human), UniProt P10721, D816V/DEL694-753). Entry: `Cc1n[nH]c(C(=O)Nc2cnc3[nH]c(C4=CCN(C(=O)N5CCOCC5)CC4)cc3c2)c1Cl`
0.0001 to 1 µM

State IC50 on c-kit mutant D816V (Homo sapiens (Human), UniProt P10721, D816V/DEL694-753). Entry: `O=C(Nc1cnc2[nH]c(-c3ccccc3)cc2c1)c1n[nH]c2ccc(F)cc12`
10 to 200 µM

State IC50 on c-kit mutant D816V (Homo sapiens (Human), UniProt P10721, D816V/DEL694-753). Entry: `Cc1n[nH]c(C(=O)Nc2cnc3[nH]c(-c4ccccc4)nc3c2)c1Cl`
0.0001 to 1 µM

State IC50 on c-kit mutant D816V (Homo sapiens (Human), UniProt P10721, D816V/DEL694-753). Entry: `O=C(Nc1cnc2[nH]c(-c3ccccc3)cc2c1)c1[nH]ncc1Br`
0.0001 to 1 µM

meta.source: patent US10301280B2
